Measured Ki (Bcl-xL (Homo sapiens, UniProt Q07817))

Solved cases (2 shown):
[[record]]
molecule = "N#Cc1c(-c2ccc(N3CCc4cccc(C(=O)Nc5nc6ccccc6s5)c4C3)nc2C(=O)O)cccc1S(=O)(=O)C12CC3CC(CC(C3)C1)C2 [Example 60]"
measured_property = "Ki"
observed_measurement = "< 0.1 nM"

[[record]]
molecule = "COCCOCCOCCOC12CC3CC(CC(Cn4ncc(-c5ccc(N6CCc7cccc(C(=O)Nc8nc9ccccc9s8)c7C6)nc5C(=O)O)c4C)(C3)C1)C2 [Example 80]"
measured_property = "Ki"
observed_measurement = "< 0.1 nM"


Record lookup: for Bcl-xL (Homo sapiens, UniProt Q07817), what Ki belongs to Cc1c(OCC23CC4CC(CC(C4)C2)C3)cccc1-c1ccc(N2CCc3cccc(C(=O)Nc4nc5ccccc5s4)c3C2)nc1C(=O)O [Example 21] ?
0.6 nM

Record lookup: for Bcl-xL (Homo sapiens, UniProt Q07817), what Ki belongs to Cc1c(-c2ccc(N3CCc4cccc(C(=O)Nc5nc6cccnc6s5)c4C3)nc2C(=O)O)cnn1CC12CC3CC(CC(C3)O1)C2 [Example 67] ?
< 0.1 nM

Record lookup: for Bcl-xL (Homo sapiens, UniProt Q07817), what Ki belongs to O=C(Nc1nc2ccccc2s1)c1cccc2c1CN(c1ccc(-c3cnn(CC45CC6CC(CC(C6)C4)C5)c3Cl)c(C(=O)O)n1)CC2 [Example 42] ?
0.3 nM

Record lookup: for Bcl-xL (Homo sapiens, UniProt Q07817), what Ki belongs to Cc1c(-c2ccc(N3CCc4cccc(C(=O)Nc5nc6ccccc6s5)c4C3)nc2C(=O)O)cccc1N(C)CC12CC3CC(CC(C3)C1)C2 [Example 55] ?
0.4 nM

Record lookup: for Bcl-xL (Homo sapiens, UniProt Q07817), what Ki belongs to Cc1c(OC23CC4CC(CC(C4)C2)C3)cccc1-c1ccc(N2CCc3cccc(C(=O)Nc4nc5ccccc5s4)c3C2)nc1C(=O)O [Example 28] ?
0.5 nM
